experiment: qHTS assay to identify small molecule antagonists of the estrogen related receptor (ERR) signaling pathway from Tox21 library (AID 1224848); details: ERR reporter cell line, luciferase antagonist mode, 18 h; series mostly up to 92.4 µM; note: nearly all actives have a fitted effect of over 50% in size
Inconclusive results are not listed. Active and inactive are the calls of the source. Calls come from the whole dose curve; as a rule, active = well fitted inhibition curve with a large enough effect in the repeat runs; inconclusive = weak or mixed curves; inactive = no such curve, though single readings can be large or run the other way.
Outcomes: active, inactive

> print(dat)
                                    compound     class
 1                  Cc1cc(N=Nc2ccccc2C)ccc1N  inactive
 2                         CC(=O)C(Cl)(Cl)Cl    active
 3  CCc1nn(C)c(C(=O)NCc2ccc(C(C)(C)C)cc2)c1Cl    active
 4                 c1ccc(Nc2ccc3ccccc3c2)cc1  inactive
 5                         O=C(CCl)Nc1ccccc1    active
 6  C=CCC1=C(C)C(OC(=O)C2C(C=C(C)C)C2(C)C)CC1=O (stereo not given)    active
 7  CC(C)C1CCC(Cc2ccc(Cl)cc2)C1(O)Cn1cncn1 (stereo not given)    active
 8  CC1(c2ccc(Oc3ccccc3)cc2)OC(=O)N(Nc2ccccc2)C1=O (stereo not given)    active
 9  CS(=O)(=O)c1ccc(C(=O)C2C(=O)CCCC2=O)c([N+](=O)[O-])c1  inactive
10         C1CCC2CCCCC2C1 (stereo not given)  inactive
11  COC12CC[C@@]3(C[C@@H]1C(C)(O)C(C)(C)C)[C@H]1Cc4ccc(O)c5c4[C@@]3(CCN1CC1CC1)[C@H]2O5 (stereo not given in full)    active
12  CCC(C)c1cc(C(C)(C)C)cc(-n2nc3ccccc3n2)c1O (stereo not given)  inactive
13                                CSCCCN=C=S  inactive
14  ClC1=C(Cl)[C@]2(Cl)[C@@H]3[C@@H]4C[C@@H]([C@H]5O[C@@H]45)[C@@H]3[C@@]1(Cl)C2(Cl)Cl    active
15  O=C(CCCN1CCC2(CC1)C(=O)NCN2c1ccccc1)c1ccc(F)cc1  inactive
16               Clc1ccc(C(Cl)(Cl)Cl)c(Cl)c1    active
17           CCCCCCCCCCCCCCCCCCn1cc[n+](C)c1    active
18                           O=C(CCl)C(Cl)Cl    active
19  COc1cc(C=O)cc2c1[C@H](COC(N)=O)[C@]1(OC(C)=O)ON2C[C@H]2[C@@H]1N2C(C)=O    active
20  CCOc1cc(C(C)(C)C)ccc1C1COC(c2c(F)cccc2F)=N1 (stereo not given)    active
